These entries and their values trace back to ChEMBL document CHEMBL6096699.

# Assay Comment: Dark toxicity in human HBE cells assessed as cell viability incubated for 24 hrs in dark by MTT assay
# Assay type: cell-based
Parameter: Activity

CN(C)c1ccc2cc(C(=O)/C=C/c3ccc4c(c3)CN3CN4Cc4cc(Br)ccc43)c(=O)oc2c1 ... Toxic
CCN(CC)c1ccc2cc(C(=O)/C=C/c3ccc4c(c3)CN3CN4Cc4cc(C=O)ccc43)c(=O)oc2c1 ... Toxic
CCN(CC)c1ccc2cc(C(=O)/C=C/c3cc4c(cc3OC)N3Cc5cc(Br)c(OC)cc5N(C4)C3)c(=O)oc2c1 ... Toxic
CCN(CC)c1ccc2cc(C(=O)/C=C/c3ccc4c(c3)CN3CN4Cc4cc(Br)ccc43)c(=O)oc2c1 ... Toxic

* * *

# Assay Comment: Developmental toxicity in wild type AB zebrafish assessed as survival rate at 50 uM incubated for 72 hrs under condition relative to control
# Parameters: species or system Danio rerio
# Experimental Context: in vivo
Parameter: survival at 72 h, 50 µM (%)
Give the quantity in %, number only.

survival at 72 h, 50 µM reported for this molecule "CCN(CC)c1ccc2cc(C(=O)/C=C/c3ccc4c(c3)CN3CN4Cc4cc(Br)ccc43)c(=O)oc2c1" : 100

* * *

Reported Fluorescence quantum yield values for a set of molecules
# Assay Comment: Photophysical property of the compound assessed as fluorescence quantum yield
# Type: physicochemical
Format: numeric value only, no unit, no commentary.

CN(C)c1ccc2cc(C(=O)/C=C/c3ccc4c(c3)CN3CN4Cc4cc(Br)ccc43)c(=O)oc2c1 ... 0.16

The measured Fluorescence quantum yield associated with "CCN(CC)c1ccc2cc(C(=O)/C=C/c3cc4c(cc3OC)N3Cc5cc(Br)c(OC)cc5N(C4)C3)c(=O)oc2c1" reads 0.16

In plain terms, "CCN(CC)c1ccc2cc(C(=O)/C=C/c3ccc4c(c3)CN3CN4Cc4cc(C=O)ccc43)c(=O)oc2c1" has a documented Fluorescence quantum yield of 0.18

Fluorescence quantum yield reported for this molecule "CCN(CC)c1ccc2cc(C(=O)/C=C/c3ccc4c(c3)CN3CN4Cc4cc(Br)ccc43)c(=O)oc2c1" : 0.12

* * *

# Assay Comment: Induction of type-1 ROS generation in tetrahydrofuran assessed as fold increase in DHR123 fluorescence intensity at 0.5 uM followed by LED white light irradiation at 1.8 mWcm/2 for 300 sec by DCFH staining based analysis
# Assay type: functional
Parameter: fold change (FC)
Kindly provide the number alone.

Look over these answered cases.
CN(C)c1ccc2cc(C(=O)/C=C/c3ccc4c(c3)CN3CN4Cc4cc(Br)ccc43)c(=O)oc2c1 ... 25.5
CCN(CC)c1ccc2cc(C(=O)/C=C/c3cc4c(cc3OC)N3Cc5cc(Br)c(OC)cc5N(C4)C3)c(=O)oc2c1 ... 17.4
CCN(CC)c1ccc2cc(C(=O)/C=C/c3ccc4c(c3)CN3CN4Cc4cc(C=O)ccc43)c(=O)oc2c1 ... 24.1

Proceeding to the next compound to report its fold change (FC).
# fold change (FC) of "CCN(CC)c1ccc2cc(C(=O)/C=C/c3ccc4c(c3)CN3CN4Cc4cc(Br)ccc43)c(=O)oc2c1" = 25.6

* * *

# Assay Comment: Developmental toxicity in wild type AB zebrafish assessed as survival rate at 50 uM incubated for 72 hrs followed by LED light irradiation at 1.8 mW cm/2 relative to control
# Design: species or system Danio rerio
# Experimental Context: in vivo
Parameter: survival at 72 h, 50 µM (%)
Give just the number in %; leave the unit off.

Consider "CCN(CC)c1ccc2cc(C(=O)/C=C/c3ccc4c(c3)CN3CN4Cc4cc(Br)ccc43)c(=O)oc2c1" . Its measured survival at 72 h, 50 µM is 100
